Species: Homo sapiens
Assay: Selectivity ratio of Ki for human delta opioid receptor to Ki for human mu opioid receptor

# compound, Ratio Ki
records = [
    ("OC(COc1ccc(Cc2ccc(OCC(O)COc3ccc4c(c3)[C@@]35CCCC[C@H]3[C@@H](C4)N(CC3CCC3)CC5)cc2)cc1)COc1ccc2c(c1)[C@@]13CCCC[C@H]1[C@@H](C2)N(CC1CCC1)CC3 (stereo partly drawn)", 121),
    ("OC(COc1ccc2c(c1)[C@@]13CCCC[C@H]1[C@@H](C2)N(CC1CCC1)CC3)COc1ccc2c(c1)[C@@]13CCCC[C@H]1[C@@H](C2)N(CC1CCC1)CC3", 39),
    ("c1cc2c(cc1OCCCCCCCCCCOc1ccc3c(c1)[C@@]14CCCC[C@H]1[C@@H](C3)N(CC1CCC1)CC4)[C@@]13CCCC[C@H]1[C@@H](C2)N(CC1CCC1)CC3", 38),
    ("c1cc2c(cc1OCC1CO1)[C@@]13CCCC[C@H]1[C@@H](C2)N(CC1CCC1)CC3 (stereo partly drawn)", 27),
    ("CCCCCCCCC(O)COc1ccc2c(c1)[C@@]13CCCC[C@H]1[C@@H](C2)N(CC1CCC1)CC3 (stereo partly drawn)", 7),
    ("OC(COc1ccccc1)COc1ccc2c(c1)[C@@]13CCCC[C@H]1[C@@H](C2)N(CC1CCC1)CC3 (stereo partly drawn)", 13),
    ("CCCCCCCCCC(=O)Oc1ccc2c(c1)[C@@]13CCCC[C@H]1[C@@H](C2)N(CC1CCC1)CC3", 100),
    ("OC(CCCCC(O)COc1ccc2c(c1)[C@@]13CCCC[C@H]1[C@@H](C2)N(CC1CCC1)CC3)COc1ccc2c(c1)[C@@]13CCCC[C@H]1[C@@H](C2)N(CC1CCC1)CC3 (stereo partly drawn)", 23),
]

The measurements presented in this section are drawn from ChEMBL document CHEMBL1154976.
